- measurement target: CDK4/cyclin D3 (Homo sapiens, UniProt P11802)
- Construct: purchased Carna
- Sequence (P11802 whole entry): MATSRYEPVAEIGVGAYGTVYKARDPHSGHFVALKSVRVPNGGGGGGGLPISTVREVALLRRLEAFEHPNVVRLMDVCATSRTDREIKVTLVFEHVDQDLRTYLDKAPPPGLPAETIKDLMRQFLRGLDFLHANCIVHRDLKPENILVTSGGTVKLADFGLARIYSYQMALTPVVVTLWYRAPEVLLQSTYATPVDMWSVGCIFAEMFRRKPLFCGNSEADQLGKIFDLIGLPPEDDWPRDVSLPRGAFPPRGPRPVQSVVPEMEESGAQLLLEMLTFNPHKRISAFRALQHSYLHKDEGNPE
- Sequence (P30281 whole entry partner): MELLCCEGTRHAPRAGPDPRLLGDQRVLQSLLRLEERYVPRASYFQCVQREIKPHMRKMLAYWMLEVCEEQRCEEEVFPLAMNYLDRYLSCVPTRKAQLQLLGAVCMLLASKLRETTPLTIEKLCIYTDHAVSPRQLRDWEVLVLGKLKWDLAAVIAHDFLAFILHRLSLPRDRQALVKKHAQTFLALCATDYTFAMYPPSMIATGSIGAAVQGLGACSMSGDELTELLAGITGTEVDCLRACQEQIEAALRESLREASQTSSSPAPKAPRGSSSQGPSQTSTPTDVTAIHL
- test method notes: In vitro biochemical kinase activity assay for CDK4/cyclin D3 (HTRF)
- measurement setup: unmarked data: 80 µM ATP in Step 1
Listing: pIC50 of selected molecules
Quick note: pIC50 means taking -log10 of the concentration in moles per liter.

Observe how each entry below is paired with its result.
CC(=O)c1ncc(C#Cc2nc(N[C@@H]3CCOC[C@H]3O)ncc2Cl)n1C(C)C [Example 1]; 8.21
CC(C)n1c(C#Cc2nc(Nc3ccc(C4CCN(C)CC4)cn3)ncc2Cl)cnc1C(C)(C)O [Example 55]; 9.48
CC(=O)c1ncc(C#Cc2nc(N[C@@H]3CCOC[C@H]3O)ncc2Cl)n1C(C)C [Example 52]; 8.21

Quickly give me recorded pIC50 for CCN1CCN(Cc2ccc(Nc3ncc(Cl)c(C#Cc4cnc(C(C)(C)O)n4C(C)C)n3)nc2)CC1 [Example 41] 8.74

Identify measured pIC50 associated with CCN1CC2(C1)CN(c1ccc(Nc3ncc(F)c(C#Cc4cnn(C)c4C(C)C)n3)nc1)C2 [Example 61] 9.03

---

Measured IC50 accompanies every entry in the list below.
- measurement target: CDK2/cyclin E1 (Homo sapiens, UniProt P24941)
- Construct: purchased Carna
- test method notes: In vitro biochemical kinase activity assay for CDK2/cyclin E1 (HTRF)
- measurement setup: 1 µM ATP
Only the number, expressed in µM, is required.

In the examples that follow, each entry is paired with its recorded IC50.
CC(C)NCc1ncc(C#Cc2nc(N[C@@H]3CCOC[C@H]3O)ncc2Cl)n1C(C)C; 1.97
CCN1CC2(C1)CN(c1ccc(Nc3ncc(Cl)c(C#Cc4cnn(C)c4C(C)C)n3)nc1)C2; 0.129
CC(C)c1c(C#Cc2nc(N[C@@H]3CCOC[C@H]3O)ncc2Cl)cnn1C; 1.37
CC(C)n1c(C#Cc2nc(N[C@@H]3CCOC[C@H]3O)ncc2Cl)cnc1[C@@H](C)O; 0.59
CCN1CCN(Cc2ccc(Nc3ncc(Cl)c(C#Cc4cnc(C(C)(C)O)n4C(C)C)n3)nc2)CC1; 1.85
CC(C)c1c(C#Cc2nc(Nc3ccc(C4CCN(C)CC4)cn3)ncc2Cl)cnn1C; 2.83
CC(=O)c1ncc(C#Cc2nc(N[C@@H]3CCOC[C@H]3O)ncc2Cl)n1C(C)C [Example 52]; 2.93

// switching to the query molecule
Using the record for "CNCc1ncc(C#Cc2nc(N[C@@H]3CCOC[C@H]3O)ncc2Cl)n1C(C)C" , state its measured IC50. 0.539

---

# IC50 listing for each entry below
- measurement target: CDK6/cyclin D3 (Homo sapiens, UniProt Q00534)
- Construct: purchased Carna
- Sequence (Q00534 whole entry): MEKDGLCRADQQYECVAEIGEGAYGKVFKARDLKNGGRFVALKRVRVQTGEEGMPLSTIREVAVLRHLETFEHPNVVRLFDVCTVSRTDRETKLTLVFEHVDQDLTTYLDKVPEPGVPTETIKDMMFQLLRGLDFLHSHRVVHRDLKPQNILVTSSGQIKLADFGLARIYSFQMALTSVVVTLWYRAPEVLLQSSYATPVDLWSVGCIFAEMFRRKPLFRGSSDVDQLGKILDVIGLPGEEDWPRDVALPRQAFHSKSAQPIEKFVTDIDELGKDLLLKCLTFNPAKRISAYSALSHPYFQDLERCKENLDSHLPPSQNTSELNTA
- Sequence (P30281 whole entry partner): as the sequence (P30281 whole entry partner) above
- test method notes: In vitro biochemical kinase activity assay for CDK6/cyclin D3 (HTRF)
- measurement setup: unmarked data: 100 µM ATP in Step 1
Field: numeric (nM). Do not append units.

Supply recorded IC50 for "CC(C)n1c(C#Cc2nc(N[C@@H]3CCOC[C@H]3O)ncc2Cl)cnc1[C@@H](C)O" here. 47.1

Dear colleague, please send me the reported IC50 for CC(=O)c1ncc(C#Cc2nc(N[C@@H]3CCOC[C@H]3O)ncc2Cl)n1C(C)C [Example 1] when you can. 24.2

Identify measured IC50 associated with "CC(C)n1c(C#Cc2nc(N[C@@H]3CCN(S(C)(=O)=O)C[C@H]3O)ncc2Cl)cnc1C(C)(C)O" 3.04

# return recorded IC50 for input "CC(C)n1c(C#Cc2nc(N[C@@H]3CCOC[C@H]3O)ncc2Br)cnc1C(C)(C)O" 51.1

---

- measurement target: CDK6/cyclin D3 (Homo sapiens, UniProt Q00534)
- Construct: purchased Carna
- test method notes: In vitro biochemical kinase activity assay for CDK6/cyclin D3 (HTRF)
- measurement setup: unmarked data: 100 µM ATP in Step 1
- Description: III. In Vitro Biochemical Kinase Activity Assay for CDK6/Cyclin D3 The inhibitory effects of the compounds of the present invention on CDK6/cyclin D3 kinase activity were determined using an HTRF assay. The experimental process was as follows: 1. The kinase reaction was carried out in a 384-well plate. […] The plate was transferred to an Envision plate reader to detect FRET signals. (The 665/615 ratio was calculated by reading the emission at 665 nm and 615 nM, respectively.) 4. […]
parameter measured: IC50 (nM)
Give a bare numeral; the unit nM is implied.

CCN1CC2(C1)CN(c1ccc(Nc3ncc(Cl)c(C#Cc4cnn(C)c4C(C)C)n3)nc1)C2; 4.86
CC(C)n1c(C#Cc2nc(Nc3ccc(N4CCN(C)CC4)cn3)ncc2Cl)cnc1C(C)(C)O; 1.9
CC(C)n1c(C#Cc2nc(N[C@@H]3CCOC[C@H]3O)ncc2Cl)cnc1CN(C)C; 130
CC(C)(C)n1cncc1C#Cc1nc(N[C@@H]2CCOC[C@H]2O)ncc1Cl; 39.3
CC(C)n1c(C#Cc2cc(N[C@@H]3CCOC[C@H]3O)ncc2Cl)cnc1CN1CCC[C@H](O)C1; 223
CC(C)c1nn(C)cc1C#Cc1nc(N[C@@H]2CCOC[C@H]2O)ncc1Cl; 164

Determine its reported IC50: "CC(C)c1c(C#Cc2nc(Nc3ccc(C4CCN(C)CC4)cn3)ncc2F)cnn1C" 38.3

Note down IC50 recorded for "CC(C)c1c(C#Cc2nc(N[C@@H]3CCOC[C@H]3O)ncc2Cl)cnn1C" 49

---

- measurement target: CDK4/cyclin D3 (Homo sapiens, UniProt P11802)
- Construct: purchased Carna
- test method notes: In vitro biochemical kinase activity assay for CDK4/cyclin D3 (HTRF)
- measurement setup: data marked with *: 1 mM ATP in Step 1
Measured pIC50 of individual entries
Give only the number. pIC50 is defined as minus log10 of concentration in molar units.

CC(C)n1c(C#Cc2nc(N[C@@H]3CCOC[C@H]3O)ncc2Br)cnc1C(C)(C)O [Example 88]; 7.90
CC(C)n1c(C#Cc2nc(N[C@@H]3CCOC[C@H]3O)ncc2Cl)cnc1CN1CC(C)(O)C1 [Example 38]; 6.76
CN(C)c1c(C#Cc2nc(N[C@@H]3CCOC[C@H]3O)ncc2Cl)cnn1C [Example 130]; 7.63

Read the entry CC1CCN(C)c2ncc(C#Cc3nc(N[C@@H]4CCOC[C@H]4O)ncc3Cl)n21 (some centres unmarked) [Example 135] and write its reported pIC50. 6.75

Specify reported pIC50 for the molecule shown: CC(C)n1c(C#Cc2nc(N[C@@H]3CCN(S(C)(=O)=O)C[C@H]3O)ncc2Cl)cnc1CN1CCC[C@H](O)C1 [Example 129] 8.83

Give the value of pIC50 reported for the following: CC1CCOc2ncc(C#Cc3nc(N[C@@H]4CCOC[C@H]4O)ncc3Cl)n21 (some centres unmarked) [Example 132] 7.03

Determine its reported pIC50: CC(C)n1c(C#Cc2nc(N[C@@H]3CCOC[C@H]3O)ncc2Cl)cnc1C1(O)CC1 [Example 121] 8.03

Annotate the molecule CC(C)n1c(C#Cc2nc(N[C@@H]3CCOC[C@H]3C#N)ncc2Cl)cnc1C(C)(C)O [Example 101] with its measured pIC50. 6.10

Tell me measured pIC50 for CC(C)n1c(C#Cc2nc(Nc3ccc(C4C5CN(C)CC54)cn3)ncc2Cl)cnc1C(C)(C)O (centres unmarked) [Example 119] please. 8.27

Complete the entry with pIC50 for CC(C)c1c(C#Cc2nc(Nc3ccc(N4CC5(CN(CCF)C5)C4)cn3)ncc2F)cnn1C [Example 82] 8.49

Quote pIC50 reported for CC(C)n1c(C#Cc2nc(N[C@@H]3CCOC[C@H]3O)ncc2Cl)cnc1C(C)(O)C1CC1 (some centres unmarked) [Example 125] please. 7.93

Let me know recorded pIC50 for CC(=O)N1CC2(C1)CN(c1ccc(Nc3ncc(F)c(C#Cc4cnn(C)c4C(C)C)n3)nc1)C2 [Example 89] , thanks. 7.79

Report pIC50 for CC(C)n1c(C#Cc2nc(Nc3ccc(N4CC5(CN(CC(F)(F)F)C5)C4)cn3)ncc2Cl)cnc1CN1CCC[C@H](O)C1 [Example 113] 8.23

State its pIC50 for this molecule: CC(C)n1c(C#Cc2nc(Nc3ccc(C(=O)N(C)C)cn3)ncc2Cl)cnc1C(C)(C)O [Example 100] 8.17

State its pIC50: CC(C)n1c(C#Cc2nc(Nc3ccc(N4CC5(CN(CC(F)F)C5)C4)cn3)ncc2Cl)cnc1CN1CCC[C@H](O)C1 [Example 116] 8.24

Using known records, supply pIC50 for CC(C)n1c(C#Cc2nc(N[C@@H]3CCOC[C@H]3O)ncc2Cl)cnc1CN1CCC[C@@H](O)C1 [Example 78] 7.12

Supply pIC50 value. Item: CC(C)n1c(C#Cc2nc(N[C@@H]3CCOC[C@H]3O)ncc2Cl)cnc1CN1CCC[C@H](O)C1 [Example 75] 7.67

Specify reported pIC50 for the molecule shown: CC(C)n1c(C#Cc2nc(N[C@@H]3CCOC[C@H]3O)ncc2Cl)cnc1[C@@H](C)N1CCC[C@H](O)C1 [Example 123] 7.43

Report pIC50 for CC(C)n1c(C#Cc2nc(N[C@@H]3CCOC[C@H]3O)ncc2Cl)cnc1N1CCOC1=O [Example 126] 7.77

Using the record for CCN1CC2(C1)CN(c1ccc(Nc3ncc(Cl)c(C#Cc4cnc(C)n4C(C)C)n3)nc1)C2 [Example 80] , state its measured pIC50. 8.58

// Input: CC(C)n1c(C#Cc2nc(N[C@@H]3CCOC[C@H]3F)ncc2Cl)cnc1C(C)(C)O [Example 91] . Output its pIC50 only. 7.05

Tell us which pIC50 value is on record for CC1(C)OCCn2ncc(C#Cc3nc(N[C@@H]4CCOC[C@H]4O)ncc3Cl)c21 [Example 111] 7.33

Entry CCN1CCN(Cc2ccc(Nc3cc(C#Cc4cnc(C(C)(C)O)n4C(C)C)c(Cl)cn3)nc2)CC1 [Example 77] needs its pIC50 filled in; supply it. 8.79

Please list pIC50 recorded for the molecule [2H]C(C)(O)c1ncc(C#Cc2nc(N[C@@H]3CCOC[C@H]3O)ncc2Cl)n1C(C)C (some centres unmarked) [Example 138] 8.23

Return the recorded pIC50 value; entry: CC(C)c1c(C#Cc2nc(N[C@@H]3CCN(S(C)(=O)=O)C[C@H]3O)ncc2Cl)cnn1C [Example 33] 8.87
